assay.notes: Preliminary salt screen
Format: physicochemical
reported.conditions: equi-millimolar base and acid, 2-propanol or acetonitrile, alternative solvents
experimental.endpoint: Result of preliminary salt screen (physical form obtained)

compound: O=C(O)c1ccc(O)cc1 [4-Hydroxybenzoic]
result: tacky gum
//
compound: O=C(O)CC(O)(CC(=O)O)C(=O)O
result: tacky gum
//
compound: Cc1ccc(S(=O)(=O)O)cc1.O
result: Oil
//
compound: CC1(C)[C@@H]2CC[C@@]1(CS(=O)(=O)O)C(=O)C2 [(1 S)-(+)-1 O-Camphorsulfonic]
result: oil
//
compound: Cl [Hydrochloric]
result: red oil
//
compound: O=C(O)CC(=O)O
result: Oil
//
compound: COc1ccc(C(=O)O)cc1
result: Oil
//
compound: O=C(O)CCC(=O)O
result: red oil
//
compound: O=C(O)/C=C\C(=O)O
result: Oil
//
compound: CC1(C)[C@@H](C(=O)O)CC[C@@]1(C)C(=O)O [(1 R,3S)-(+)-Camphoric]
result: oil
//
compound: O=C(O)CCCCC(=O)O
result: oil
//
compound: O=C(O)c1ccc2ccccc2c1O [1-Hydroxy-2-naphthoic (Xinafoic)]
result: brown gum
//
compound: CC(=O)Nc1ccc(C(=O)O)cc1
result: oil
//
compound: CS(=O)(=O)O
result: Oil
//
compound: O=C[C@H](O)[C@@H](O)[C@H](O)[C@H](O)C(=O)O
result: brown gum
